EXPERIMENTAL_TARGET: cGMP-specific 3',5'-cyclic phosphodiesterase (Homo sapiens, UniProt O76074)
MEASURED_PROPERTY: IC50

# input Using the record for "C[C@@H]1CN(Cc2ccc(C(=O)NO)cc2)C[C@H]1c1nc2c(cnn2C2CCOCC2)c(=O)[nH]1" , state its measured IC50.
# output > 10 µM

###

EXPERIMENTAL_TARGET: Histone deacetylase 4 (Homo sapiens)
Sequence (P56524 whole entry): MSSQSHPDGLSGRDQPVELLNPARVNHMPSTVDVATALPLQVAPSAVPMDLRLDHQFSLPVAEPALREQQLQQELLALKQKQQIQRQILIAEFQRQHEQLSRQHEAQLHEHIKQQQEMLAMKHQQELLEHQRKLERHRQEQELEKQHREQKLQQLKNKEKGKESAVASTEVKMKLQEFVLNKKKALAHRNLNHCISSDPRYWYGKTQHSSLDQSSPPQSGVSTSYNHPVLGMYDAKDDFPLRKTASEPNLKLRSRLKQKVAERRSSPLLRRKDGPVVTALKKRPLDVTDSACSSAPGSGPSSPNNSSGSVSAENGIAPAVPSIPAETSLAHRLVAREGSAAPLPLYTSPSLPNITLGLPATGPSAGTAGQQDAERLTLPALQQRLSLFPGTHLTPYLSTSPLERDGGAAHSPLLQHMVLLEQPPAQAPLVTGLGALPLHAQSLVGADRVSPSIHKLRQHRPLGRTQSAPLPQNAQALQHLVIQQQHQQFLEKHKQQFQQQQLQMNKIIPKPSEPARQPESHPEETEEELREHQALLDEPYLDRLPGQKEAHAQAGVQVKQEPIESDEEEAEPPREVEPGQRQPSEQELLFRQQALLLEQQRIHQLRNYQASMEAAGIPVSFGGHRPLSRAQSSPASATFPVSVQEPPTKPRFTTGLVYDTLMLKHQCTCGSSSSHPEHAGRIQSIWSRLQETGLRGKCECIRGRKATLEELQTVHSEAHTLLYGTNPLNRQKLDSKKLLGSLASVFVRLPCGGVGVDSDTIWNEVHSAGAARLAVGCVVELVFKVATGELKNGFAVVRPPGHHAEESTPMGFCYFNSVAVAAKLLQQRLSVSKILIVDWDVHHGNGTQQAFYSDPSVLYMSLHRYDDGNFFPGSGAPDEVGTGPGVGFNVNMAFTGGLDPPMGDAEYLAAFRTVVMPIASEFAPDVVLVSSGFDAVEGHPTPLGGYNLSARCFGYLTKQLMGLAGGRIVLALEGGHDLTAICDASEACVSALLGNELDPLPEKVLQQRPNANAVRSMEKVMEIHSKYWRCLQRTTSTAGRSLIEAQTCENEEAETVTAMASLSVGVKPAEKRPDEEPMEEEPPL
METHOD_DESCRIPTION: Inhibition of HDAC4 (unknown origin)
pIC50: −log10 of the molar value.
MEASURED_PROPERTY: pIC50

{"columns": ["STRUCTURE_NOTATION", "EXPERIMENTAL_TARGET", "pIC50"],
 "data": [
  ["CC12CC3CC(C)(C1)CC(NC(=O)/C=C/c1ccc(C(=O)NO)cc1)(C3)C2", "Histone deacetylase 4 (Homo sapiens)", "< 5.00"]
]}

Could you now consider this next compound?
# input Give the observed pIC50 of "O=C(NO)c1ccc(/C=N/NC(=O)c2cc(N3CCOCC3)nc(-c3cccc(O)c3)n2)cc1" for Histone deacetylase 4 (Homo sapiens).
# output < 5.52

###

EXPERIMENTAL_TARGET: Histone deacetylase 7 (Homo sapiens, UniProt Q8WUI4)
METHOD_DESCRIPTION: Inhibition of HDAC7 (unknown origin)
pIC50: −log10 of the molar value.
MEASURED_PROPERTY: pIC50

# input Using the record for "CC12CC3CC(C)(C1)CC(NC(=O)/C=C/c1ccc(C(=O)NO)cc1)(C3)C2" , state its measured pIC50.
# output < 5.00

###

EXPERIMENTAL_TARGET: Histone deacetylase 1 (Homo sapiens)
Sequence (Q13547 whole entry): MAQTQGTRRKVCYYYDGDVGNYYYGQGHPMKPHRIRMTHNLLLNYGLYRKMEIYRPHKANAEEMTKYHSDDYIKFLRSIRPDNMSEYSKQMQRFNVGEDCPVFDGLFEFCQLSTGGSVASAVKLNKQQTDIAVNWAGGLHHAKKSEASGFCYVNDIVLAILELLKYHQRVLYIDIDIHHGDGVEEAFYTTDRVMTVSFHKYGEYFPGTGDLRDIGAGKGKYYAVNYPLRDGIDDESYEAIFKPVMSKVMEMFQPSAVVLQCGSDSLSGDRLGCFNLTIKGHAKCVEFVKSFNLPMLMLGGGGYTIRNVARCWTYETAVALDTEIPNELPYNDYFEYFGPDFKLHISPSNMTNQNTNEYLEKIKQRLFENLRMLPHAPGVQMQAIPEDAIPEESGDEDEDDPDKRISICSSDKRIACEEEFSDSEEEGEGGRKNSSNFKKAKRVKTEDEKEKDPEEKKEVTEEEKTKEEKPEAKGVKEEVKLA
MEASURED_PROPERTY: IC50 (nM)
Write the answer as a number in nM, unit excluded.

# input Give the observed IC50 of "C[C@@H]1CN(Cc2ccc(C(=O)NO)cc2)C[C@H]1c1nc2c(cnn2C2CCOCC2)c(=O)[nH]1" for Histone deacetylase 1 (Homo sapiens).
# output 593

###

EXPERIMENTAL_TARGET: Phosphatidylinositol 4,5-bisphosphate 3-kinase catalytic subunit gamma isoform (Homo sapiens)
Sequence (P48736 whole entry, canonical isoform): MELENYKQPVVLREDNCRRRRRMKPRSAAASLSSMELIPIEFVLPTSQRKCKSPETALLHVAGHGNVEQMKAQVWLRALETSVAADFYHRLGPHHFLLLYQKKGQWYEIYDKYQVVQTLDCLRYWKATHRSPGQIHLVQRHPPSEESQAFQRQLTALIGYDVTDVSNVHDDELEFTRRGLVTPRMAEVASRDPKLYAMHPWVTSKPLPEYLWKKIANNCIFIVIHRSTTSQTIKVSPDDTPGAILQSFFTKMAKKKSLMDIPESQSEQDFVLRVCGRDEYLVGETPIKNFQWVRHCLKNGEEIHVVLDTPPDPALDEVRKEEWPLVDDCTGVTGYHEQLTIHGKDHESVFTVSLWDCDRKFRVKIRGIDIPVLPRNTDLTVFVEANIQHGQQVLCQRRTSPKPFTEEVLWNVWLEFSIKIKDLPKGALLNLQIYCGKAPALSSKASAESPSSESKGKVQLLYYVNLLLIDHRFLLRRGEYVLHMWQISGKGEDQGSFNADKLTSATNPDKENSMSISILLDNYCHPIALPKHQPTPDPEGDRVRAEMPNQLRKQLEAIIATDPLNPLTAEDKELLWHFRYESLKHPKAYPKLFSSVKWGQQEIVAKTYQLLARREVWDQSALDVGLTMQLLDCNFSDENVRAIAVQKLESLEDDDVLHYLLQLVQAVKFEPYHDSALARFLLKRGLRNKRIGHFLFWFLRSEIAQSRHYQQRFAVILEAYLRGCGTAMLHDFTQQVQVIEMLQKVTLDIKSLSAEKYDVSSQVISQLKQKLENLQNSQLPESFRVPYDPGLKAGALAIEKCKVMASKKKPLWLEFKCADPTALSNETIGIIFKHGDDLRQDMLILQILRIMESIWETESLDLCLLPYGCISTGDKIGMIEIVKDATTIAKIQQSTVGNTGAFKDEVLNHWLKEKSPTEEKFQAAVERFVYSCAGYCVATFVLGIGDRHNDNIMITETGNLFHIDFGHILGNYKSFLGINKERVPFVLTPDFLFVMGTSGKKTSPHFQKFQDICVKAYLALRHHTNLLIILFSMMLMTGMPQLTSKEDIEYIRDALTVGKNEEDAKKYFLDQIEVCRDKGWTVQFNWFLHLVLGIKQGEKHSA
METHOD_DESCRIPTION: Inhibition of PI3Kgamma (unknown origin)
MEASURED_PROPERTY: pIC50
The value called pIC50 is obtained by taking minus log10 of the concentration in mol/L.

# input Using the record for "O=C(NO)c1ccc(/C=N/NC(=O)c2cc(N3CCOCC3)nc(-c3cccc(O)c3)n2)cc1" , state its measured pIC50.
# output 5.89

###

EXPERIMENTAL_TARGET: Steroid 17-alpha-hydroxylase/17,20 lyase (Homo sapiens, UniProt P05093)
Sequence (P05093 whole entry): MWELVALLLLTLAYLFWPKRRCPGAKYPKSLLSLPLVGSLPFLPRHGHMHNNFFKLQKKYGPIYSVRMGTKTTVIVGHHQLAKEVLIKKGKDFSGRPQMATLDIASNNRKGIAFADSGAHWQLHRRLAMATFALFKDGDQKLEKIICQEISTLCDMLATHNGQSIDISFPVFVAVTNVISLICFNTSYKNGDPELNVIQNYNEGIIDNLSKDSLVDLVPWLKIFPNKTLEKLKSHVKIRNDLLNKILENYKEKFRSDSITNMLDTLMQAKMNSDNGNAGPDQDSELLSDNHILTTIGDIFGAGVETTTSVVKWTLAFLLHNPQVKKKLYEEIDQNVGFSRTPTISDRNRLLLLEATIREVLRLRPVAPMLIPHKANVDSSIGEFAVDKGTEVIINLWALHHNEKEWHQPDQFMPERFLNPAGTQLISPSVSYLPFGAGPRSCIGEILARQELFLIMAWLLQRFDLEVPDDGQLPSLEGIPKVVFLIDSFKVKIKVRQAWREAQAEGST
MEASURED_PROPERTY: IC50 (nM)
Write the answer as a number in nM, unit excluded.

# input Using the record for C[C@]12CC[C@H](OC(=O)CCCCCC(=O)NO)CC1=CCC1C2CC[C@]2(C)C(c3cccnc3)=CCC12 (stereo partly specified) , state its measured IC50.
# output 284

###

EXPERIMENTAL_TARGET: Phosphatidylinositol 4,5-bisphosphate 3-kinase catalytic subunit beta isoform (Homo sapiens)
Sequence (P42338 whole entry, canonical isoform): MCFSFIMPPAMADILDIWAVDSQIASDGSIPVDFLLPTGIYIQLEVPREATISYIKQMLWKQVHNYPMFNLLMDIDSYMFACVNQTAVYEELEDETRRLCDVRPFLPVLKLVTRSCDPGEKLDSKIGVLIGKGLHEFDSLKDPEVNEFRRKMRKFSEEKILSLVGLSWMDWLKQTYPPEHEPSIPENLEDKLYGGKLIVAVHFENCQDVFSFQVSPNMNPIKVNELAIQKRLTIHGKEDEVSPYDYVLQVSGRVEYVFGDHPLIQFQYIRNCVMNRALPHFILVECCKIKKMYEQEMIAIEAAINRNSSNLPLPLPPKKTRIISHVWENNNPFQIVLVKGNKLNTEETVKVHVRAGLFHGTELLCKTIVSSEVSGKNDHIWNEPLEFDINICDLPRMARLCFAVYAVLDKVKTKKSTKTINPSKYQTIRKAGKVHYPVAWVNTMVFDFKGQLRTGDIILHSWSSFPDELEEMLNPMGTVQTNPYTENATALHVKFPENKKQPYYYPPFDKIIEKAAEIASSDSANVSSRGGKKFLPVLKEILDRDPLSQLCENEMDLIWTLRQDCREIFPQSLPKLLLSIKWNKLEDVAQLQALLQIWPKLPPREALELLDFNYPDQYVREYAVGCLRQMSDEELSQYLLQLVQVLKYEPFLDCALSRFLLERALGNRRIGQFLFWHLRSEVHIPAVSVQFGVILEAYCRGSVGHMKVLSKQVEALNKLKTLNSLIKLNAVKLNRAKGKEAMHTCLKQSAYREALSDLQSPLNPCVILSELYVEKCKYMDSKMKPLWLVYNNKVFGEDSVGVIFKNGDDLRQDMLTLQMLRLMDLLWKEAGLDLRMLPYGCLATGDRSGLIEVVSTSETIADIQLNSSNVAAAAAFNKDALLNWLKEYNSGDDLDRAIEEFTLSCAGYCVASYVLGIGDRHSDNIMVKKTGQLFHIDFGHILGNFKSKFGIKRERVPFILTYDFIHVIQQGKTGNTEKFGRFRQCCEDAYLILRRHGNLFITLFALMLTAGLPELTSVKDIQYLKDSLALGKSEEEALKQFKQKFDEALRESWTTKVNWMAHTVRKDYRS
METHOD_DESCRIPTION: Inhibition of PI3Kbeta (unknown origin)
MEASURED_PROPERTY: IC50
Answers without a unit are incomplete; give the number and then its unit.

# input Using the record for "O=C(NO)c1ccc(/C=N/NC(=O)c2cc(N3CCOCC3)nc(-c3cccc(O)c3)n2)cc1" , state its measured IC50.
# output 72.8 nM
